pest or weed control at 500 ppm for assorted compounds
System: Pseudomonas syringae pv. tomato
Assay: In vivo preventive test on Pseudomonas syringae pv. tomato (bacterial speck on tomato)
Details: 500 ppm of active ingredient, sprayed 72 hours before inoculation, evaluated 5 or 6 days after inoculation, read-out: efficacy
readout name: pest or weed control at 500 ppm

>>> test_value("Cc1c(C(=S)NC2(C(=O)O)CC2)sc(Cl)c1Cl")
"70 to 79%"
>>> test_value("O=C(NC1(C(=O)O)CC1)c1cc(Br)c(Br)s1 [CMP1, reference compound]")
"0%"
>>> test_value("CCSC(=O)C1(NC(=O)c2sc(Br)c(Br)c2C)CC1")
"70 to 79%"
>>> test_value("Cc1c(C(=O)NC2(C(=O)O)CCC2)sc(Br)c1Br")
"70 to 79%"
>>> test_value("CCOC(=O)C(C#N)NC(=O)c1sc(Br)c(Br)c1C (stereo not drawn)")
"80 to 89%"
>>> test_value("Cc1c(C(=O)NC(C(=O)O)C2CC2)sc(Br)c1Br (stereo not drawn)")
"70 to 79%"
>>> test_value("COC(=O)C(CC(F)F)NC(=O)c1sc(Br)c(Br)c1C (stereo not drawn)")
"70 to 79%"
>>> test_value("Cc1c(C(=O)NC(C(=O)O)C2CC2)sc(Cl)c1Cl (stereo not drawn)")
"80 to 89%"
>>> test_value("COC(=O)[C@H](CCCNC(=N)N)NC(=O)c1sc(Cl)c(Cl)c1C")
"70 to 79%"
>>> test_value("CCOC(=O)C1(NC(=O)c2cc(Br)c(Br)s2)CC1 [CMP2, reference compound]")
"< 40%"
>>> test_value("COC(=O)C(NC(=O)c1sc(Br)c(Br)c1C)C1CC1 (stereo not drawn)")
"70 to 79%"
>>> test_value("COC(=O)CC[C@H](NC(=O)c1sc(Cl)c(Cl)c1C)C(=O)OC")
"80 to 89%"

====

Tested on: Alternaria alternata
Assay: Alternaria alternata in vitro cell test
Type: cell-based
Details: 120 h, 5 ppm of active ingredient, 5 days incubation, read-out: efficacy (inhibition of fungal growth; no direct activity)
inhibition at 5 ppm for assorted molecules
readout name: inhibition at 5 ppm

>>> test_value("CCOC(=O)C(CO)NC(=O)c1sc(Cl)c(Cl)c1C (stereo not drawn)")
"≤ 30%"
>>> test_value("CCOC(=O)C(COC)NC(=O)c1sc(Br)c(Br)c1C (stereo not drawn)")
"≤ 30%"
>>> test_value("Cc1c(C(=S)N[C@H](C(=O)O)C(C)C)sc(Br)c1Br")
"≤ 30%"
>>> test_value("COC(=O)C(NC(=O)c1sc(Cl)c(Cl)c1C)C1CC1 (stereo not drawn)")
"≤ 30%"
>>> test_value("CCOC(=O)C(CC(N)=O)NC(=O)c1sc(Cl)c(Cl)c1C (stereo not drawn)")
"≤ 30%"
>>> test_value("CCOC(=O)[C@@H](NC(=S)c1sc(Br)c(Br)c1C)C(C)C")
"≤ 30%"
>>> test_value("CCOC(=O)C1(NC(=O)c2sc(Cl)c(Cl)c2C)CCC1")
"≤ 30%"
>>> test_value("CCOC(=O)C(NC(=O)c1sc(Cl)c(Cl)c1C)C1CC1 (stereo not drawn)")
"≤ 30%"
>>> test_value("COC(=O)C(CC(F)F)NC(=O)c1sc(Br)c(Br)c1C (stereo not drawn)")
"≤ 30%"
>>> test_value("CCSC(=O)C1(NC(=O)c2sc(Cl)c(Cl)c2C)CC1")
"≤ 30%"
>>> test_value("COC(=O)C1(NC(=O)c2sc(Br)c(Br)c2C)CSC1")
"≤ 30%"
>>> test_value("Cc1c(C(=O)NC(C(=O)O)C2CC2)sc(Br)c1Br (stereo not drawn)")
"≤ 30%"
>>> test_value("COC(=O)C(NC(=O)c1sc(Br)c(Br)c1C)C1CC1 (stereo not drawn)")
"≤ 30%"
>>> test_value("CONC(=O)[C@@H](NC(=O)c1sc(Br)c(Br)c1C)C(C)C")
"≤ 30%"
>>> test_value("CCOC(=O)C(C#N)NC(=O)c1sc(Br)c(Br)c1C (stereo not drawn)")
"≤ 30%"
>>> test_value("COC(=O)CC[C@H](NC(=O)c1sc(Cl)c(Cl)c1C)C(=O)OC")
"≤ 30%"
>>> test_value("Cc1c(C(=O)NC2(C(=O)O)CCC2)sc(Cl)c1Cl")
"≤ 30%"
>>> test_value("COC(=O)CC[C@H](NC(=O)c1sc(Br)c(Br)c1C)C(=O)OC")
"≤ 30%"
>>> test_value("COC(=O)C(C)(C)NC(=O)c1sc(Cl)c(Cl)c1C")
"≤ 30%"
>>> test_value("COC(=O)[C@H](CCCNC(=N)N)NC(=O)c1sc(Cl)c(Cl)c1C")
"≤ 30%"
>>> test_value("Cc1c(C(=O)NC(Cc2c[nH]c3ccccc23)C(=O)O)sc(Cl)c1Cl (stereo not drawn)")
"≤ 30%"
>>> test_value("CCOC(=O)C(CO)NC(=O)c1sc(Br)c(Br)c1C (stereo not drawn)")
"≤ 30%"
>>> test_value("CCOC(=O)C1(NC(=O)c2sc(Br)c(Br)c2C)COC1")
"≤ 30%"
>>> test_value("Cc1c(C(=O)NC(C(=O)O)C2CC2)sc(Cl)c1Cl (stereo not drawn)")
"≤ 30%"

====

Assay: LogP by HPLC on reversed phase columns (EEC directive 79/831 Annex V.A8)
Type: physicochemical
Conditions: reversed phase HPLC columns; method [a]
readout name: chromatographic logP

>>> test_value("CCOC(=O)C(C#N)NC(=O)c1sc(Br)c(Br)c1C (stereo not shown)")
3.22
>>> test_value("C=CC1CC1(NC(=O)c1sc(Br)c(Br)c1C)C(=O)OC (stereo not shown)")
3.48
>>> test_value("Cc1c(C(=S)NC2(C(=O)O)CC2)sc(Cl)c1Cl")
2.84
>>> test_value("CCOC(=O)C1(NC(=O)c2sc(Br)c(Br)c2C)CCC1")
3.81
>>> test_value("CCOC(=O)C(NC(=O)c1sc(Cl)c(Cl)c1C)C1CC1 (stereo not shown)")
3.76
>>> test_value("COC(=O)C1(NC(=O)c2sc(Br)c(Br)c2C)CSC1")
3.31
>>> test_value("CCOC(=O)C1(NC(=O)c2sc(Cl)c(Cl)c2C)CCC1")
3.67
>>> test_value("COC(=O)C1(NC(=O)c2sc(Br)c(Br)c2C)CCC(F)(F)CC1")
3.83
>>> test_value("COC(=O)C(CC(F)F)NC(=O)c1sc(Br)c(Br)c1C (stereo not shown)")
3.33
>>> test_value("CCSC(=O)C1(NC(=O)c2sc(Br)c(Br)c2C)CC1")
3.81
>>> test_value("COC(=O)C(C)(C)NC(=O)c1sc(Cl)c(Cl)c1C")
3.16
>>> test_value("Cc1c(C(=O)NC(C)(C)C(=O)O)sc(Cl)c1Cl")
2.43
>>> test_value("CCOC(=O)C(Cc1c[nH]c2ccccc12)NC(=O)c1sc(Cl)c(Cl)c1C (stereo not shown)")
4.08
>>> test_value("Cc1c(C(=O)NC2(C(=O)O)CCC2)sc(Cl)c1Cl")
2.62
>>> test_value("Cc1c(C(=O)NC(CC(N)=O)C(=O)O)sc(Br)c1Br (stereo not shown)")
1.73
>>> test_value("CCOC(=O)C(NC(=O)c1sc(Cl)c(Cl)c1C)C(F)(F)F (stereo not shown)")
4.07
>>> test_value("CCOC(=O)C(CO)NC(=O)c1sc(Cl)c(Cl)c1C (stereo not shown)")
2.48
>>> test_value("CCCOC(=O)C1(NC(=O)c2sc(Br)c(Br)c2C)CCC1")
4.23
>>> test_value("Cc1c(C(=O)NC(C(=O)O)C2CC2)sc(Cl)c1Cl (stereo not shown)")
2.59
>>> test_value("COC(=O)C(NC(=O)c1sc(Br)c(Br)c1C)C1CC1 (stereo not shown)")
3.41
>>> test_value("COC(=O)C(CC(F)F)NC(=O)c1sc(Cl)c(Cl)c1C (stereo not shown)")
3.25
>>> test_value("COC(=O)C1(NC(=O)c2sc(Br)c(Br)c2C)CCC1")
3.4

====

System: Colletotrichum lindemuthianum
Assay: In vivo preventive test on Colletotrichum lindemuthianum (Anthracnose on bean)
Conditions: Colletotrichum lindemuthianum, 144 h, 500 ppm of active ingredient, sprayed 72 hours before inoculation, evaluated 6 days after inoculation, read-out: efficacy
readout name: pest or weed control at 500 ppm

>>> test_value("CCOC(=O)C(CO)NC(=O)c1sc(Cl)c(Cl)c1C (stereo not shown)")
"90 to 100%"
>>> test_value("COC(=O)C(CC(F)F)NC(=O)c1sc(Br)c(Br)c1C (stereo not shown)")
"90 to 100%"
>>> test_value("COC(=O)CC[C@H](NC(=O)c1sc(Cl)c(Cl)c1C)C(=O)OC")
"80 to 89%"
>>> test_value("CCOC(=O)C(NC(=O)c1sc(Cl)c(Cl)c1C)C1CC1 (stereo not shown)")
"90 to 100%"
